Some molecules, each annotated with its measured Emax (%).
- Study System: human OX2R (Homo sapiens (Human))
- Sequence (O43614 whole entry): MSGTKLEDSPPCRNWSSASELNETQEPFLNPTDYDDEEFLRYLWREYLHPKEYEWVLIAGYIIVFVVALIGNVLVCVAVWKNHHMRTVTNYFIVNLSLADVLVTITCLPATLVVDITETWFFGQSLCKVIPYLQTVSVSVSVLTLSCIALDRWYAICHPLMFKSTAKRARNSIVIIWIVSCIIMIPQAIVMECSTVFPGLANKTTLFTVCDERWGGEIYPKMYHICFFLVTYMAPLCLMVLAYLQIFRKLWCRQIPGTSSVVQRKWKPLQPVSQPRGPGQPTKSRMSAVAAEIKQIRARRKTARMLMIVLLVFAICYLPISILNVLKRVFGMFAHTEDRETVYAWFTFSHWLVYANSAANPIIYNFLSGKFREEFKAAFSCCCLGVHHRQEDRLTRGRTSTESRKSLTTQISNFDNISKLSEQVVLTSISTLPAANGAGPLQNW
- Procedure Summary: IPOne (IP-One, Cisbio) orexin receptor agonist assay in CHO cells expressing human OX2R
- Assay Context: hOX2R_IP; percentage of mean max effect of a reference compound at 1 uM (100% activity vs Orexin A)
Lab book: enter the figure in %, no units written.

Solved entries (count: 3):
>  <Molecule>
COC(=O)N1[C@H](C)C[C@H](NS(=O)(=O)CC(F)F)[C@@H]1CO[C@H]1CC[C@@H](c2cccc(F)c2)CC1

>  <Unit Of Measurement>
%

>  <Test Value>
99

$$$$
>  <Molecule>
COC(=O)N1[C@H](C)C[C@H](NS(C)(=O)=O)[C@@H]1CO[C@H]1CC[C@H](c2ncccn2)CC1

>  <Unit Of Measurement>
%

>  <Test Value>
98

$$$$
>  <Molecule>
C=C[C@@H]1C[C@H](NS(C)(=O)=O)[C@H](CO[C@H]2CC[C@@H](c3ccccc3)CC2)N1C(=O)OC (relative stereo)

>  <Unit Of Measurement>
%

>  <Test Value>
102

$$$$

Q: Provide measured Emax (%) on human OX2R (Homo sapiens (Human)) for `COC(=O)N1[C@H](C)C[C@H](NS(C)(=O)=O)[C@@H]1CO[C@H]1CC[C@@H](C(C)C)CC1` please.
Result: 102

Q: Find the measured Emax (%) of `COCCN(C)S(=O)(=O)N[C@H]1C[C@@H](C)N(C(=O)OC)[C@H]1CO[C@H]1CC[C@@H](c2cccc(F)c2)CC1` with human OX2R (Homo sapiens (Human)) as test system.
Result: 100

Q: Please indicate recorded Emax (%) of `COC(=O)N1[C@H](C)C[C@H](NS(=O)(=O)N(C)CC2CS(=O)(=O)C2)[C@@H]1CO[C@H]1CC[C@@H](c2cccc(F)c2)CC1` measured with human OX2R (Homo sapiens (Human)).
Result: 101

Q: Output reported Emax (%) of the molecule `COC(=O)N1[C@H](C)C[C@H](NS(=O)(=O)N(C)C)[C@@H]1CO[C@H]1CC[C@H](c2ccc(C#N)c(C)c2)CC1` on human OX2R (Homo sapiens (Human)).
Result: 99

Q: Enter measured Emax (%), system human OX2R (Homo sapiens (Human)), for the molecule shown: COC(=O)N1[C@H](C)C[C@H](NS(=O)(=O)N(C)CCS(C)(=O)=O)[C@@H]1COC1CCC(c2cccc(F)c2)CC1 (some centres unmarked)
Result: 100

Q: State, for human OX2R (Homo sapiens (Human)), measured Emax (%) of the molecule listed here: `COC(=O)N1[C@H](C)C[C@H](NS(=O)(=O)N(C)C)[C@@H]1CO[C@H]1CC[C@@H](c2ccccc2)CC1`
Result: 100

Q: Given `CNS(=O)(=O)N[C@H]1C[C@@H](C)N(C(=O)OCC(F)F)[C@H]1CO[C@H]1CC[C@@H](c2ccccc2)CC1` , report its Emax (%) on human OX2R (Homo sapiens (Human)).
Result: 101

Hello, the source for this data is patent US11098029B2, in case you need it.
